Target: T1, class I MHC receptor HLA-A2 on T2 cells (human)
T1 construct: detected on the cell surface with a mouse anti-human HLA-A2 monoclonal antibody and goat anti-mouse IgG F(ab')2-FITC; also called HLA-A2 receptor; HLA-A2 class I MHC
Assay: T2 cells, anti-HLA-A2 flow cytometry after brefeldin A; Assay #1; 2 hr
Give fluorescence index for every item shown.
A number alone suffices; assume F.I..

Query: Suppose we examine the binder GQGDVMVFV [Filamin B peptide #6] ; what fluorescence index value has been reported?
Response: 1.74

Query: Would you kindly share the measured fluorescence index for SLQESGLKV [Filamin B peptide #4] ?
Response: 1.43

Query: Given KLILGLVWT [Filamin B peptide #7] , state its recorded fluorescence index.
Response: 1.24

Query: What value of measured fluorescence index is listed for GLAPLEVRV [Filamin B peptide #3] ?
Response: 4.3

Query: Return reported fluorescence index; argument: LILGLVWTL [Filamin B peptide #1]
Response: 3.17
